Target: 3-oxoacyl-[acyl-carrier-protein] synthase 2 (Staphylococcus aureus, UniProt Q5TKS0)
Sequence (Q5TKS0 whole entry): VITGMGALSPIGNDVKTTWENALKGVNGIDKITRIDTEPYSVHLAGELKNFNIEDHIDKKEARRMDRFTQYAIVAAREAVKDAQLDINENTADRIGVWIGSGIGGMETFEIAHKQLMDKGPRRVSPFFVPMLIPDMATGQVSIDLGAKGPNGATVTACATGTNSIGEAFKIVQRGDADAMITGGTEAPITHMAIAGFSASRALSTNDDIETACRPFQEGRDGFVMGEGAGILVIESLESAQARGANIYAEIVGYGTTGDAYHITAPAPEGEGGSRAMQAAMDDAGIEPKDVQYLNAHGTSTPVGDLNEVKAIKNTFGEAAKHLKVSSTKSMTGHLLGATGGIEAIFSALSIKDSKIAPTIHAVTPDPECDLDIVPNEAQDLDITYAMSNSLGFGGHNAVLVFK
MEASUREMENT LABEL: pIC50
Scale: pIC50 equals -log10([C]), with [C] in mol/L.

stdin: Item C=C1C[C@@]23C=CC(=O)[C@@](C)(CCC(=O)Nc4c(O)ccc(C(=O)O)c4O)[C@@H]2C[C@@H]1CC3 : provide pIC50
stdout: 5.34

###

assay: Binding affinity to Aquifex aeolicus LpxC assessed as inhibition constant at pH 5.5
MEASUREMENT LABEL: pKi
Reminder that pKi is minus the log10 of a molar concentration.

stdin: Using the record for CCCCCCCCCCCCC(=O)OC1C(CC(=O)NO)COC(CO)C1O (stereo unspecified) , state its measured pKi.
stdout: 9.00

###

test: Inhibition of Escherichia coli LpxH
MEASUREMENT LABEL: pIC50
# log scale: pIC50 equals minus log10 of the concentration in mol/L

1. O=CN1CCc2cc(S(=O)(=O)N3CCN(c4cc(F)cc(C(F)(F)F)c4)CC3)ccc21; 7.08
2. O=CN1CCc2cc(S(=O)(=O)N3CCN(c4cccc(C(F)(F)F)c4)CC3)ccc21; 6.85

Moving on to the next molecule.
stdin: Note down pIC50 recorded for O=CN1CCc2cc(S(=O)(=O)N3CCN(c4cc(Cl)cc(C(F)(F)F)c4)CC3)ccc21
stdout: 7.34

###

assay: Binding affinity to Pseudomonas aeruginosa LpxD assessed as dissociation constant
MEASUREMENT LABEL: pKd
Please express pKd as -log10 of the molar concentration.

stdin: Give the measured pKd for NC(=O)C1CN(C(=O)CSCCC(=O)O)c2ccccc2O1 (stereo unspecified)
stdout: 4.44

###

Entries and their pIC50
assay: Inhibition of Staphylococcus aureus FabH
// returns pIC50 (minus log10 of molar concentration), number only

1. C=C1C[C@@]23C=CC(=O)[C@@](C)(CCC(=O)Nc4c(O)ccc(C(=O)O)c4O)[C@@H]2C[C@@H]1CC3 [PLATENCIN]; 5.04

Then there is this molecule:
stdin: Give pIC50 for the following molecule: C[C@]12CC34C=CC(=O)[C@@](C)(CCC(=O)Nc5c(O)ccc(C(=O)O)c5O)[C@@H]3[C@H](C[C@@H]1C4)O2
stdout: 3.61

###

Catalogue of IC50 readings, one per entry.
test: Inhibition of Escherichia coli BL21(DE3) LpxA
Residues, ends and D or L forms follow the SMILES beside them.
Output spec: scalar in µM, unitless text.

Examples from the recorded data:
1) CC[C@H](C)[C@H](NC(=O)[C@@H]1CCCN1C(=O)[C@H](CCC(=O)O)NC(=O)[C@H](CC(C)C)NC(=O)[C@H](CCSC)NC(=O)[C@H](Cc1c[nH]c2ccccc12)NC(=O)CNC(=O)[C@H](CO)NC(=O)[C@@H](N)CO)C(=O)N[C@@H](C)C(=O)NCC(=O)N[C@@H](CCCCN)C(=O)N[C@@H](Cc1c[nH]c2ccccc12)C(=O)N[C@@H](CO)C(=O)O (H-SSGWMLEPIAGKWS-OH); 12
2) CC[C@H](C)[C@H](NC(=O)[C@@H]1CCCN1C(=O)[C@H](CCC(=O)O)NC(=O)[C@H](CC(C)C)NC(=O)[C@H](CCSC)NC(=O)[C@H](Cc1c[nH]c2ccccc12)NC(=O)CN)C(=O)N[C@@H](C)C(=O)NCC(=O)N[C@@H](CCCCN)C(=O)N[C@@H](Cc1c[nH]c2ccccc12)C(=O)O (H-GWMLEPIAGKW-OH); 10
3) CC[C@H](C)[C@H](NC(=O)[C@@H]1CCCN1C(=O)[C@H](CCC(=O)O)NC(=O)[C@H](CC(C)C)NC(=O)[C@H](CCSC)NC(=O)[C@H](Cc1c[nH]c2ccccc12)NC(=O)CNC(=O)[C@H](CO)NC(=O)[C@@H](N)CO)C(=O)N[C@@H](C)C(=O)NCC(=O)N[C@@H](CCCCN)C(=O)N[C@@H](Cc1c[nH]c2ccccc12)C(=O)O (H-SSGWMLEPIAGKW-OH); 9
4) CC[C@H](C)[C@H](NC(=O)[C@@H]1CCCN1C(=O)[C@H](CC(=O)O)NC(=O)[C@H](CC(C)C)NC(=O)[C@H](CCSC)NC(=O)[C@H](Cc1c[nH]c2ccccc12)NC(=O)CN)C(=O)N[C@@H](C)C(=O)NCC(=O)N[C@@H](CCCCN)C(=O)N[C@@H](Cc1c[nH]c2ccccc12)C(=O)N[C@@H](CO)C(=O)N[C@@H](CCCNC(=N)N)C(=O)O (H-GWMLDPIAGKWSR-OH); 0.077

Would you kindly look at the next entry?
stdin: Provide IC50 value for the following compound: CC[C@H](C)[C@H](NC(=O)[C@@H]1CCCN1C(=O)[C@H](CC(=O)O)NC(=O)[C@H](CC(C)C)NC(=O)[C@H](CCSC)NC(=O)[C@@H](N)Cc1c[nH]c2ccccc12)C(=O)N[C@@H](C)C(=O)NCC(=O)N[C@@H](CCCCN)C(=O)N[C@@H](Cc1c[nH]c2ccccc12)C(=O)N[C@@H](CO)C(=O)N[C@@H](CCCNC(=N)N)C(=O)O (H-WMLDPIAGKWSR-OH)
stdout: 0.05
